Reported IC50 for target or system ovine COX-1 (Ovis aries), by entry.
Put down the number, then write its unit next to it.

Some solved cases for reference:
compound="CC(=O)Oc1cccc(/C=C\\Sc2ccccc2OC(C)=O)c1 [Example 10, Z-3-Acetoxystyryl 2-acetoxyphenylsulfide]" measuredresult="2 µM"
compound="CC(=O)Oc1ccccc1S/C=C\\c1ccccc1Cl [Example 3, Z-2-Chlorostyryl 2-acetoxyphenylsulfide]" measuredresult="4 µM"
compound="CC(=O)Oc1ccccc1S/C=C\\c1ccccc1 [Example 1, Z-styryl 2-acetoxyphenylsulfide]" measuredresult="5 µM"
compound="CC(=O)Oc1ccccc1S/C=C\\c1ccc(Cl)cc1 [Example 4, Z-4-Chlorostyryl 2-acetoxyphenylsulfide]" measuredresult="4 µM"

Now let's try a different one.
**Query** Please tell me: IC50 of CC(=O)Oc1ccccc1S/C=C\c1ccc(F)cc1 [Example 2, Z-4-Fluorostyryl 2-acetoxyphenylsulfide] , system ovine COX-1 (Ovis aries)?
**Result** 4.5 µM

----------
targetOrTestSystem: human recombinant COX-2 (Homo sapiens, UniProt P35354)
Construct: purchased Oxford Biomedical Research Inc
Sequence (P35354 18-604): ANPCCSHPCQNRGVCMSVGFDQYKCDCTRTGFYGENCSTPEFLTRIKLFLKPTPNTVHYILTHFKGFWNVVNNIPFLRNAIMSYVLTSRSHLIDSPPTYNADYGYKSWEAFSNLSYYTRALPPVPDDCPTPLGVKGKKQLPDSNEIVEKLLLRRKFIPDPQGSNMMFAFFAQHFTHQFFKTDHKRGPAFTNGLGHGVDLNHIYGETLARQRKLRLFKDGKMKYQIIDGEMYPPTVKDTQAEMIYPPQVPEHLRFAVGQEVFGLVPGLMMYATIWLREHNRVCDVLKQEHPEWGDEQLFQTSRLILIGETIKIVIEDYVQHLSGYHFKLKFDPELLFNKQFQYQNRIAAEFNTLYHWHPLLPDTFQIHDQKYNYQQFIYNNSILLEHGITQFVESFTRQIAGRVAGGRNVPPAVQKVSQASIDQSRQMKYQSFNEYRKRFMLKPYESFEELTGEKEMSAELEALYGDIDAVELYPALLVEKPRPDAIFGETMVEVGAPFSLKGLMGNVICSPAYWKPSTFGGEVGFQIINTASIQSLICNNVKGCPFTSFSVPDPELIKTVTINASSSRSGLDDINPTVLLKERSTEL
testSummary: Cyclooxygenase enzyme assay (TLC method), COX-2
Assay type: biochemical
conditionDescription: human recombinant COX-2, preincubation 90-120 min, [1-14C]arachidonic acid 50 μM
As shown below, each of these compounds has a reported pIC50 value.
pIC50 is defined as minus the log10 of a concentration measured in mol/L.

Some solved cases for reference:
compound="CC(=O)Oc1ccccc1S/C=C\\c1ccc(F)cc1 [Example 2, Z-4-Fluorostyryl 2-acetoxyphenylsulfide]" measuredresult=6.46
compound="CC(=O)Oc1ccccc1S/C=C\\c1ccccc1 [Example 1, Z-styryl 2-acetoxyphenylsulfide]" measuredresult=6.82

**Query** For the compound shown here, CC(=O)Oc1ccccc1S/C=C\c1ccc(Cl)cc1 [Example 4, Z-4-Chlorostyryl 2-acetoxyphenylsulfide] , give the reported pIC50.
**Result** 6.70

**Query** For the compound shown here, CC(=O)Oc1ccccc1S/C=C\c1ccccc1Cl [Example 3, Z-2-Chlorostyryl 2-acetoxyphenylsulfide] , give the reported pIC50.
**Result** 6.60

**Query** For the compound shown here, CC(=O)Oc1cccc(/C=C\Sc2ccccc2OC(C)=O)c1 [Example 10, Z-3-Acetoxystyryl 2-acetoxyphenylsulfide] , give the reported pIC50.
**Result** 6.15
